Target: human JAK3 (aa 795-1124) catalytic domain (Homo sapiens, UniProt P52333)
Construct: JAK3 (aa 795-1124); GST (N)
Sequence (P52333 795-1124): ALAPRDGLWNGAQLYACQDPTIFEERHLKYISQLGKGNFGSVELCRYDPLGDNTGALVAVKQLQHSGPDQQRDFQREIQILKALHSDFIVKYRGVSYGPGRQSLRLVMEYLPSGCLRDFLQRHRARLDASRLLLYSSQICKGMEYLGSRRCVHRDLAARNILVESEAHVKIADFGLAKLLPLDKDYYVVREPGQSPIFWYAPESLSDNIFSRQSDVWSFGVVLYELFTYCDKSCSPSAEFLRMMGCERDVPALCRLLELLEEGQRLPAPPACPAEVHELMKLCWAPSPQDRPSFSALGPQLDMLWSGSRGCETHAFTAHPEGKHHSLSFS
Assay: In vitro JAK kinase assay (TR-FRET), JAK3
Conditions: GST-fusion catalytic domain; ATP 0.6 μM; poly (GT)-Biotin 140 nM; 30 minutes at room temperature
pIC50: −log10 of the molar value.

| COMPOUND | pIC50 |
| --- | --- |
| CC(C)(C)CNc1nc(-c2cnc3ccc(C#N)cn23)nc2ccccc12 [Example 25] | 6.00 to 7.00 |
| N#Cc1ccc2ncc(-c3nccc(NC4CCCCC4)n3)n2c1 [Example 21] | > 7.00 |
| CN(CC#N)C(=O)N1CCC[C@@H](Nc2ccnc(-c3cnc4ccc(F)cn34)n2)C1 [Example 68] | > 7.00 |
| Cc1cnc(-c2cnc3ccc(F)cn23)nc1N[C@@H]1CCCN(C(=O)CC(F)(F)F)C1 [Example 80] | > 7.00 |
| N#CCC(=O)N1CCC[C@@H](Nc2cc(N)nc(-c3cnc4ccc(F)cn34)n2)C1 [Example 183] | > 7.00 |
| N#Cc1cnc(N2CCC[C@@H](Nc3ccnc(-c4cnc5ccc(F)cn45)n3)C2)s1 [Example 131] | > 7.00 |
| N#Cc1ccc(N2CCC[C@@H](Nc3ccnc(-c4cnc5ccc(C#N)cn45)n3)C2)nc1 [Example 57] | > 7.00 |
| C[C@H](Nc1cncc(-c2cnc3ccc(-c4ccccc4)cn23)n1)c1ccccc1 [Example 42] | < 6.00 |
| O=C(Cc1ccc(CO)cc1)N1CCC[C@@H](Nc2ccnc(-c3cnc4ccc(F)cn34)n2)C1 [Example 107] | < 6.00 |
| CC(C)S(=O)(=O)N1CCC[C@@H](Nc2ccnc(-c3cnc4ccc(C#N)cn34)n2)C1 [Example 45] | 6.00 to 7.00 |
| Nc1cnc(-c2cnc3ccc(F)cn23)nc1NCc1ccc(F)cn1 [Example 136] | > 7.00 |
| COc1cnc(-c2cnc3ccc(F)cn23)nc1N[C@@H]1CCCN(C(=O)CC#N)C1 [Example 163] | > 7.00 |
| N#CCC(=O)N1CCC[C@@H](Nc2cc(C(=O)O)nc(-c3cnc4ccc(F)cn34)n2)C1 [Example 181] | 6.00 to 7.00 |
| C[C@@H](c1ccc(F)cn1)N(C)c1nc(-c2cnc3ccc(F)cn23)ncc1C(=O)O [Example 145] | 6.00 to 7.00 |
| CCC[C@H](Nc1nc(-c2cnc3ccc(F)cn23)ncc1C(N)=O)c1ccc(F)cc1 [Example 151] | > 7.00 |
| O=C([C@H](O)CO)N1CCC[C@@H](Nc2nc(-c3cnc4ccc(F)cn34)nc(N3CCOCC3)c2F)C1 [Example 185] | 6.00 to 7.00 |
| COCCNc1ccnc(-c2cnc3ccc(C#N)cn23)n1 [Example 6] | 6.00 to 7.00 |

----------
Biological target: human JAK2 (aa 826-1132) catalytic domain (Homo sapiens, UniProt O60674)
Construct: JAK2 (aa 826-1132); GST (N)
Sequence (O60674 826-1132): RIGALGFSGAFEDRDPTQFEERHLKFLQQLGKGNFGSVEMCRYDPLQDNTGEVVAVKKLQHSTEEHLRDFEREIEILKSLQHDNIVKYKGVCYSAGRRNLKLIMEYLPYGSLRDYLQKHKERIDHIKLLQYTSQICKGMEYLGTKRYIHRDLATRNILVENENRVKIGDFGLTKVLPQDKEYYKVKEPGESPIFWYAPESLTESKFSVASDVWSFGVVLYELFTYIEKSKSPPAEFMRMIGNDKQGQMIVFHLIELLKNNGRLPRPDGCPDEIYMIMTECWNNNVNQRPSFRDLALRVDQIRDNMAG
Experiment: In vitro JAK kinase assay (TR-FRET), JAK2
Conditions: GST-fusion catalytic domain; ATP 0.2 μM; poly (GT)-Biotin 20 nM; 30 minutes at room temperature
The following molecules are shown together with reported IC50 values.
PARAMETER: IC50

| SMILES_REPR | PARAMETER | VALUE_OBSERVED |
| --- | --- | --- |
| CC(C)(C)CNc1nc(-c2cnc3ccc(C#N)cn23)ncc1N1CCNCC1 | IC50 | < 100 nM |
| N#Cc1ccc2ncc(-c3nccc(NC4CCCCC4)n3)n2c1 | IC50 | < 100 nM |
| N#CCC(=O)N1CCC[C@@H](Nc2cc(N3CCC[C@H]3C(=O)O)nc(-c3cnc4ccc(F)cn34)n2)C1 | IC50 | < 100 nM |
| CCCN1CC[C@@H](Nc2ccnc(-c3cnc4ccc(F)cn34)n2)C1=O | IC50 | 100 to 1000 nM |
